molecular target: UniProt:Q8TDC3; experiment: Caliper, Mobility shift assay off-chip; details: compound 0.02 µM
Sequence (Q8TDC3 whole entry, looked up): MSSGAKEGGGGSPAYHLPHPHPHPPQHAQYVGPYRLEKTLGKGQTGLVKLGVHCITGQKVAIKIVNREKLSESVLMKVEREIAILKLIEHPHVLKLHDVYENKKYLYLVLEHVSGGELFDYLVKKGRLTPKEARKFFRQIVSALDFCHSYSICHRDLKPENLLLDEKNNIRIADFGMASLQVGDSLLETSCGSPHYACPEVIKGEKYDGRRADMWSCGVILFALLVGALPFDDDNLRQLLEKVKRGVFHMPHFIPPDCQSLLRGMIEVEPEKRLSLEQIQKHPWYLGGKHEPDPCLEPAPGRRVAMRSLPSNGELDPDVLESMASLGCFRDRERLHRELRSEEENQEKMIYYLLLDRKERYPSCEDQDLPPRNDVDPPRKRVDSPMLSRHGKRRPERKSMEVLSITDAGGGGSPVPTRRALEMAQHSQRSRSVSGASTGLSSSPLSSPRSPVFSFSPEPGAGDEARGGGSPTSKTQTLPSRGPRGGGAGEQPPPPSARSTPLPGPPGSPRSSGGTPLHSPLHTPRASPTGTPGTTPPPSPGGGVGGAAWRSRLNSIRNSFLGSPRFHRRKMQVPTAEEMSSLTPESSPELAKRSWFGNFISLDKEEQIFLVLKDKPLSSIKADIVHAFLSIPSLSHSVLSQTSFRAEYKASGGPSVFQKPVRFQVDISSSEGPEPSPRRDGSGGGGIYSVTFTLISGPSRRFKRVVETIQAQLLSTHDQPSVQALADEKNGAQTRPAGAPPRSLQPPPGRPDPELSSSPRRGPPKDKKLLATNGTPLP
Each record here notes measured inhibition.
Reported Endpoint: inhibition (%)

Smiles Structure	Number
COc1cc2c(Oc3ccc4[nH]c(C)cc4c3F)ncnc2cc1OCCCN1CCCC1	2.2
Cc1ccc(Nc2nccc(N(C)c3ccc4c(C)n(C)nc4c3)n2)cc1S(N)(=O)=O	5.3
CNC(=O)c1ccccc1Sc1ccc2c(/C=C/c3ccccn3)n[nH]c2c1	20.1
CNC(=O)c1cc(Oc2ccc(NC(=O)Nc3ccc(Cl)c(C(F)(F)F)c3)cc2)ccn1	-2.6

###

Recorded measurements of inhibition, one per entry
target: STK38L (human) (UniProt Q9Y2H1); assay: Caliper, Mobility shift assay off-chip; conditions: compound 0.2 µM
Sequence (Q9Y2H1 whole entry, looked up): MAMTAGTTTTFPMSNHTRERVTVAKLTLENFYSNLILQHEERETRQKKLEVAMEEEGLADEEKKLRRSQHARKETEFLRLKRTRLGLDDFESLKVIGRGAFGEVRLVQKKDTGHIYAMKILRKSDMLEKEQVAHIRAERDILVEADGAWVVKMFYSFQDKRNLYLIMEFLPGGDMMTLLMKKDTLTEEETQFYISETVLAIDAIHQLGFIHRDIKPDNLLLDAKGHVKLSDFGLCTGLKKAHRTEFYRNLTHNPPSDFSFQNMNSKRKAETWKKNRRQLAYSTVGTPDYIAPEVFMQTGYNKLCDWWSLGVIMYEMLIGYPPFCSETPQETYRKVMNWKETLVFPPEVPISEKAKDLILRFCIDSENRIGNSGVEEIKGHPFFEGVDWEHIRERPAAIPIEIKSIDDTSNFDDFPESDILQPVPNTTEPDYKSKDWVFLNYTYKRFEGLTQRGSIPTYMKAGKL

Smiles Structure	Experimental Target	Result Units	inhibition
COc1cc2c(Oc3ccc4[nH]c(C)cc4c3F)ncnc2cc1OCCCN1CCCC1	STK38L (human) (UniProt Q9Y2H1)	%	-0.2
Cc1ccc(Nc2nccc(N(C)c3ccc4c(C)n(C)nc4c3)n2)cc1S(N)(=O)=O	STK38L (human) (UniProt Q9Y2H1)	%	6.6
CNC(=O)c1cc(Oc2ccc(NC(=O)Nc3ccc(Cl)c(C(F)(F)F)c3)cc2)ccn1	STK38L (human) (UniProt Q9Y2H1)	%	4.2
CCN(CC)CCNC(=O)c1c(C)[nH]c(/C=C2\C(=O)Nc3ccc(F)cc32)c1C	STK38L (human) (UniProt Q9Y2H1)	%	6.1

###

Below, each entry is listed alongside its reported inhibition.
molecular target: HCK (human); assay: Caliper, Mobility shift assay off-chip; conditions: compound 0.02 µM

Smiles Structure	inhibition (%)
Cc1ccc(Nc2nccc(N(C)c3ccc4c(C)n(C)nc4c3)n2)cc1S(N)(=O)=O	2.6
CNC(=O)c1ccccc1Sc1ccc2c(/C=C/c3ccccn3)n[nH]c2c1	-7.8
COc1cc2c(Oc3ccc4[nH]c(C)cc4c3F)ncnc2cc1OCCCN1CCCC1	0.4
CNC(=O)c1cc(Oc2ccc(NC(=O)Nc3ccc(Cl)c(C(F)(F)F)c3)cc2)ccn1	-11.6

###

target: TAOK2 (human); assay: Caliper, Mobility shift assay off-chip; details: compound 0.2 µM

Smiles Structure	Result Units	inhibition
Cc1ccc(Nc2nccc(N(C)c3ccc4c(C)n(C)nc4c3)n2)cc1S(N)(=O)=O	%	22.3
CNC(=O)c1cc(Oc2ccc(NC(=O)Nc3ccc(Cl)c(C(F)(F)F)c3)cc2)ccn1	%	48
COc1cc2c(Oc3ccc4[nH]c(C)cc4c3F)ncnc2cc1OCCCN1CCCC1	%	3.3
CCN(CC)CCNC(=O)c1c(C)[nH]c(/C=C2\C(=O)Nc3ccc(F)cc32)c1C	%	3.8

###

molecular target: MAP3K2 (human); assay: ELISA; conditions: compound 0.2 µM
Reported Endpoint: inhibition

Smiles Structure	Experimental Target	Result
Cc1ccc(Nc2nccc(N(C)c3ccc4c(C)n(C)nc4c3)n2)cc1S(N)(=O)=O	MAP3K2 (human)	12%
CNC(=O)c1cc(Oc2ccc(NC(=O)Nc3ccc(Cl)c(C(F)(F)F)c3)cc2)ccn1	MAP3K2 (human)	5.2%
CCN(CC)CCNC(=O)c1c(C)[nH]c(/C=C2\C(=O)Nc3ccc(F)cc32)c1C	MAP3K2 (human)	52.1%
COc1cc2c(Oc3ccc4[nH]c(C)cc4c3F)ncnc2cc1OCCCN1CCCC1	MAP3K2 (human)	4.4%
